Tested on: 5637
test details: In vitro 2D assay (CellTiter-Blue cell viability)
Assay type: cell-based, human
experimental setup: 2D assay, BXF 5637, 96 h treatment
observable: pIC50
Hey, just a heads up that pIC50 is the negative log base 10 of the concentration in molar.

QUERY: Endpoint output: pIC50 of N.N.[Cl][Pt][Cl] [Cisplatin, cisplatin] . Value?
RESULT: 5.01

* * *

Test system: 5 human tumor cell lines of bladder cancer
test details: In vitro 3D clonogenic assay, mean over the panel
Assay type: cell-based
experimental setup: Homo sapiens, colony formation, read-out: mean relative IC50 value
observable: IC50 (µM)
All answers are understood in µM, so give the number only.

QUERY: Query the reported IC50 for 5 human tumor cell lines of bladder cancer; item: COc1ccc(-c2ccc3cc(C(=O)O)ccc3c2)cc1C12CC3CC(CC(C3)C1)C2
RESULT: 7.37

* * *

Tested on: BXF 1036L
test details: Combination study, 3D clonogenic assay, 5x5 matrix, Bliss independence
Format: cell-based, human
experimental setup: monotherapy controls of the 5x5 combination matrix, read-out: IC50, colony formation, single agent
observable: pIC50
Hey, just a heads up that pIC50 is the negative log base 10 of the concentration in molar.

QUERY: Endpoint output: pIC50 of N.N.[Cl][Pt][Cl] [Cisplatin, cisplatin] . Value?
RESULT: 5.22

Data credit: patent US20200170983A1
